System: CYP2C19
assay procedure: Cocktail method in rats: pharmacokinetics of probe drug omeprazole (CYP2C19 activity)
Type: in vivo
run parameters: male, Wistar, rat, plasma, iv, 10 mg/kg, control group (saline ig 14 days), omeprazole 10 mg/kg iv
result type: half-life (min)

[[record]]
compound = "COc1ccc2[nH]c([S+]([O-])Cc3ncc(C)c(OC)c3C)nc2c1 (stereo not shown) [Omeprazole, omeprazole]"
test_value = 9.78


====

system: CYP1A2 (Rattus norvegicus, UniProt P04799)
Construct: from tissue; host or cells: whole animal, male Wistar rats (in vivo pharmacokinetics)
Sequence (P04799 whole entry): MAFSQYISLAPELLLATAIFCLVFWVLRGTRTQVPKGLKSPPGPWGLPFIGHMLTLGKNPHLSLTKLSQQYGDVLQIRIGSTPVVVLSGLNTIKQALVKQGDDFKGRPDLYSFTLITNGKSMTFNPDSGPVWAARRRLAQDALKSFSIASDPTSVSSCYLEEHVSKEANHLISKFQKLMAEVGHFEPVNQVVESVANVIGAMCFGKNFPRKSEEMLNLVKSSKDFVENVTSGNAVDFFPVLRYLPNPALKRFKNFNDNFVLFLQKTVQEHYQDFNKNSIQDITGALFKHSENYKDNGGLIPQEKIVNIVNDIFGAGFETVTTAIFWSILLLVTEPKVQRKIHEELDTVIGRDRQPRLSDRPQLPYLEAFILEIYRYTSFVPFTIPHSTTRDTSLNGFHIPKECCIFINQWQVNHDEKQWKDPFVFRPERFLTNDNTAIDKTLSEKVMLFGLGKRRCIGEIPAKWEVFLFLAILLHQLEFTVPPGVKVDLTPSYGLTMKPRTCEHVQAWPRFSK
assay procedure: Cocktail method in rats: pharmacokinetics of probe drug theophylline (CYP1A2 activity)
Type: in vivo
run parameters: male, Wistar, plasma, iv, 10 mg/kg, positive group (phenobarbital 50 mg/kg ip 7 days), theophylline 10 mg/kg iv
result type: clearance

[[record]]
molecule = "Cn1c(=O)c2[nH]cnc2n(C)c1=O"
test_value = "1.02 mL/min/kg"


====

Tested on: CYP2C19
assay procedure: Cocktail method in rats: pharmacokinetics of probe drug omeprazole (CYP2C19 activity)
Format: in vivo
run parameters: male, Wistar, rat, plasma, iv, 10 mg/kg, Digeda group (Digeda-4 decoction 600 mg/kg ig 14 days), omeprazole 10 mg/kg iv
result type: half-life (min)

[[record]]
molecule = "COc1ccc2[nH]c([S+]([O-])Cc3ncc(C)c(OC)c3C)nc2c1 (stereo not shown)"
result_type = "half-life"
test_value = 16.9


====

Test system: CYP3A4
assay procedure: Cocktail method in rats: pharmacokinetics of probe drug midazolam (CYP3A4 activity)
run parameters: male, Wistar, rat, plasma, iv, 5 mg/kg, Cmax, positive group (phenobarbital 50 mg/kg ip 7 days), midazolam 5 mg/kg iv
result type: Cmax (ng/mL)

[[record]]
molecule = "Cc1ncc2n1-c1ccc(Cl)cc1C(c1ccccc1F)=NC2"
result_type = "Cmax"
test_value = 2560


====

system: CYP1A2 (Rattus norvegicus, UniProt P04799)
Construct: from tissue; host or cells: whole animal, male Wistar rats (in vivo pharmacokinetics)
assay procedure: Cocktail method in rats: pharmacokinetics of probe drug theophylline (CYP1A2 activity)
Type: in vivo
run parameters: male, Wistar, plasma, iv, 10 mg/kg, control group (saline ig 14 days), theophylline 10 mg/kg iv
result type: AUC(0-t) (µg·h/mL)

[[record]]
molecule = "Cn1c(=O)c2[nH]cnc2n(C)c1=O [Theophylline, theophylline]"
result_type = "AUC(0-t)"
unit_string = "µg·h/mL"
test_value = 206


====

Tested on: CYP2C19
assay procedure: Cocktail method in rats: pharmacokinetics of probe drug omeprazole (CYP2C19 activity)
Assay type: in vivo
run parameters: male, Wistar, positive group (phenobarbital 50 mg/kg ip 7 days), omeprazole 10 mg/kg iv, rat plasma
result type: half-life (min)

[[record]]
compound = "COc1ccc2[nH]c([S+]([O-])Cc3ncc(C)c(OC)c3C)nc2c1 (stereo not shown)"
test_value = 7.08


====

Test system: CYP2C19
assay procedure: Cocktail method in rats: pharmacokinetics of probe drug omeprazole (CYP2C19 activity)
Assay type: in vivo
run parameters: male, Wistar, rat, plasma, iv, 10 mg/kg, control group (saline ig 14 days), omeprazole 10 mg/kg iv
result type: AUC(0-t) (ng·h/mL)

[[record]]
compound = "COc1ccc2[nH]c([S+]([O-])Cc3ncc(C)c(OC)c3C)nc2c1 (stereo not shown)"
system = "CYP2C19"
test_value = 6920


====

Tested on: CYP2C19
assay procedure: Cocktail method in rats: pharmacokinetics of probe drug omeprazole (CYP2C19 activity)
Format: in vivo
run parameters: male, Wistar, rat, plasma, iv, 10 mg/kg, positive group (phenobarbital 50 mg/kg ip 7 days), omeprazole 10 mg/kg iv
result type: AUC(0-t) (ng·h/mL)

[[record]]
compound = "COc1ccc2[nH]c([S+]([O-])Cc3ncc(C)c(OC)c3C)nc2c1 (stereo not shown)"
test_value = 4980


====

system: CYP1A2 (Rattus norvegicus, UniProt P04799)
Construct: from tissue; host or cells: whole animal, male Wistar rats (in vivo pharmacokinetics)
assay procedure: Cocktail method in rats: pharmacokinetics of probe drug theophylline (CYP1A2 activity)
Assay type: in vivo
run parameters: male, Wistar, plasma, iv, 10 mg/kg, Digeda group (Digeda-4 decoction 600 mg/kg ig 14 days), theophylline 10 mg/kg iv
result type: AUC(0-t) (µg·h/mL)

[[record]]
molecule = "Cn1c(=O)c2[nH]cnc2n(C)c1=O"
system = "CYP1A2 (Rattus norvegicus, UniProt P04799)"
result_type = "AUC(0-t)"
unit_string = "µg·h/mL"
test_value = 299


====

System: CYP3A4
assay procedure: Cocktail method in rats: pharmacokinetics of probe drug midazolam (CYP3A4 activity)
run parameters: male, Wistar, rat, plasma, iv, 5 mg/kg, Cmax, control group (saline ig 14 days), midazolam 5 mg/kg iv
result type: Cmax

[[record]]
molecule = "Cc1ncc2n1-c1ccc(Cl)cc1C(c1ccccc1F)=NC2"
result_type = "Cmax"
test_value = "2900 ng/mL"


====

system: CYP1A2 (Rattus norvegicus)
Construct: from tissue; host or cells: whole animal, male Wistar rats (in vivo pharmacokinetics)
assay procedure: Cocktail method in rats: pharmacokinetics of probe drug theophylline (CYP1A2 activity)
Format: in vivo
run parameters: male, Wistar, plasma, iv, 10 mg/kg, Digeda group (Digeda-4 decoction 600 mg/kg ig 14 days), theophylline 10 mg/kg iv
result type: Cmax (ng/mL)

[[record]]
molecule = "Cn1c(=O)c2[nH]cnc2n(C)c1=O"
test_value = 30700


====

system: CYP1A2 (Rattus norvegicus)
Construct: from tissue; host or cells: whole animal, male Wistar rats (in vivo pharmacokinetics)
assay procedure: Cocktail method in rats: pharmacokinetics of probe drug theophylline (CYP1A2 activity)
Assay type: in vivo
run parameters: male, Wistar, plasma, iv, 10 mg/kg, positive group (phenobarbital 50 mg/kg ip 7 days), theophylline 10 mg/kg iv
result type: half-life (h)

[[record]]
molecule = "Cn1c(=O)c2[nH]cnc2n(C)c1=O"
system = "CYP1A2 (Rattus norvegicus)"
result_type = "half-life"
test_value = 2.48


====

Tested on: CYP3A4
assay procedure: Cocktail method in rats: pharmacokinetics of probe drug midazolam (CYP3A4 activity)
run parameters: male, Wistar, rat, plasma, iv, 5 mg/kg, T1/2, control group (saline ig 14 days), midazolam 5 mg/kg iv
result type: half-life (min)

[[record]]
compound = "Cc1ncc2n1-c1ccc(Cl)cc1C(c1ccccc1F)=NC2 [Midazolam, midazolam]"
system = "CYP3A4"
unit_string = "min"
test_value = 8.64


====

System: CYP3A4
assay procedure: Cocktail method in rats: pharmacokinetics of probe drug midazolam (CYP3A4 activity)
run parameters: male, Wistar, rat, plasma, iv, 5 mg/kg, AUC0~∞, Digeda group (Digeda-4 decoction 600 mg/kg ig 14 days), midazolam 5 mg/kg iv
result type: AUC(0-inf) (ng·h/mL)

[[record]]
molecule = "Cc1ncc2n1-c1ccc(Cl)cc1C(c1ccccc1F)=NC2"
result_type = "AUC(0-inf)"
unit_string = "ng·h/mL"
test_value = 1360


====

Test system: CYP3A4
assay procedure: Cocktail method in rats: pharmacokinetics of probe drug midazolam (CYP3A4 activity)
run parameters: male, Wistar, rat, plasma, iv, 5 mg/kg, Cl, positive group (phenobarbital 50 mg/kg ip 7 days), midazolam 5 mg/kg iv
result type: clearance (mL/min/kg)

[[record]]
molecule = "Cc1ncc2n1-c1ccc(Cl)cc1C(c1ccccc1F)=NC2"
unit_string = "mL/min/kg"
test_value = 115


====

system: CYP1A2 (Rattus norvegicus, UniProt P04799)
Construct: from tissue; host or cells: whole animal, male Wistar rats (in vivo pharmacokinetics)
assay procedure: Cocktail method in rats: pharmacokinetics of probe drug theophylline (CYP1A2 activity)
Assay type: in vivo
run parameters: male, Wistar, plasma, iv, 10 mg/kg, positive group (phenobarbital 50 mg/kg ip 7 days), theophylline 10 mg/kg iv
result type: AUC(0-t) (ng·h/mL)

[[record]]
molecule = "Cn1c(=O)c2[nH]cnc2n(C)c1=O"
test_value = 71900


====

system: CYP1A2 (Rattus norvegicus, UniProt P04799)
Construct: from tissue; host or cells: whole animal, male Wistar rats (in vivo pharmacokinetics)
assay procedure: Cocktail method in rats: pharmacokinetics of probe drug theophylline (CYP1A2 activity)
Assay type: in vivo
run parameters: male, Wistar, plasma, iv, 10 mg/kg, control group (saline ig 14 days), theophylline 10 mg/kg iv
result type: AUC(0-inf) (µg·h/mL)

[[record]]
molecule = "Cn1c(=O)c2[nH]cnc2n(C)c1=O"
result_type = "AUC(0-inf)"
unit_string = "µg·h/mL"
test_value = 326


====

Test system: CYP2C19
assay procedure: Cocktail method in rats: pharmacokinetics of probe drug omeprazole (CYP2C19 activity)
Type: in vivo
run parameters: male, Wistar, rat, plasma, iv, 10 mg/kg, control group (saline ig 14 days), omeprazole 10 mg/kg iv
result type: AUC(0-inf)

[[record]]
molecule = "COc1ccc2[nH]c([S+]([O-])Cc3ncc(C)c(OC)c3C)nc2c1 (stereo not shown)"
system = "CYP2C19"
test_value = "7280 ng·h/mL"

